Recorded values, source patent US8759342B2.

Target Or System: Human UII receptors (Homo sapiens)
Construct: host or cells: Human Skeletal Muscle Myoblasts (HSMM), intact adherent cells
Measurement Notes: Human radioligand binding assay, (125I)-U-II on HSMM
Experimental Conditions: 0.150 nM (125I)-U-II, intact Human Skeletal Muscle Myoblasts, 3 hrs, 25° C.; read-out: Ki
Observation Type: pKi
Hey, just a heads up that pKi is the negative log base 10 of the concentration in molar.

{"Compound": "O=C(NCCc1ccccc1)c1cc(Cl)ccc1C1CCN(CCN2C(=O)COc3ccccc32)CC1", "pKi": 6.72}

Please give the documented pKi of CC(C)(C)OC(=O)NCCCCCNC(=O)c1cc(Cl)ccc1C1=CC2CCC(C1)N2CCN1C(=O)COc2ccccc21 (stereo not shown)
5.89

# return recorded pKi for input `CC(C)(C)OC(=O)N1CCN(CCNC(=O)c2cc(Cl)ccc2C2CCN(CCN3C(=O)COc4ccccc43)CC2)CC1`
7.24

Give a short answer stating reported pKi for `O=C(NCCCCNC(=O)c1cc(Cl)ccc1C1CCN(CCN2C(=O)COc3ccccc32)CC1)OCc1ccccc1` .
7.21

Give the value of pKi reported for the following: `CC(C)(C)OC(=O)N1CCC(CNC(=O)c2cc(Cl)ccc2C2CCN(CCN3C(=O)COc4ccccc43)CC2)CC1`
6.85

Return pKi for the following compound: CC(C)(C)OC(=O)NCCCCCNC(=O)c1cc(Cl)ccc1C1CC2CCC(C1)N2CCN1C(=O)COc2ccccc21 (stereo not shown)
5.92

Output measured pKi for this item: `CC(C)(C)OC(=O)NCCCCNC(=O)c1cc(Cl)ccc1C1CCN(CCN2C(=O)COc3ccccc32)CC1`
6.82

----------
Target Or System: Human UII receptors (Homo sapiens)
Construct: host or cells: Human Skeletal Muscle Myoblasts (HSMM), intact adherent cells
Measurement Notes: Human radioligand binding assay, (125I)-U-II on HSMM
Experimental Conditions: 0.150 nM (125I)-U-II, intact Human Skeletal Muscle Myoblasts, 3 hrs, 25° C.; read-out: Ki
Measured Ki by item
Your answer should be a plain number; it is taken to be in nM.

Solved entries (count: 3):
{"Query Smiles": "CC(C)(C)CC(=O)N1CCC(CNC(=O)c2cc(Cl)ccc2C2CCN(CCN3C(=O)COc4ccccc43)CC2)CC1", "Ki [nM]": 32}
{"Query Smiles": "O=C(NCCc1ccc2ccccc2c1)c1cc(Cl)ccc1C1CCN(CCN2C(=O)COc3ccccc32)CC1", "Ki [nM]": 260}
{"Query Smiles": "O=C(NCCCCCNS(=O)(=O)Cc1ccccc1)c1cc(Cl)ccc1C1CCN(CCN2C(=O)COc3ccccc32)CC1", "Ki [nM]": 40}

Look up and report measured Ki (Human UII receptors (Homo sapiens)) for the following compound: `O=C(NCCCCCNC(=O)c1cc(Cl)ccc1C1CCN(CCN2C(=O)COc3ccccc32)CC1)NCc1ccccc1`
37

----------
# pIC50 per record follows
Target Or System: rat GPR14 (U-II receptor) (Rattus norvegicus)
Measurement Notes: Calcium flux assay (FLIPR)
Experimental Conditions: Inhibition of acetyl-cyclic[Cys-Phe-Trp-Lys-(2-Nal)-Cys]-NH2 (1 nM) induced Ca2+ mobilization (FLIPR) in CHO cells transfected with rat UII receptor; 5 min incubation
Description: To derive these cells, the complete coding sequence of rat […] was amplified by nested PCR from rat heart marathon-Ready cDNA. […] The PCR products were cloned into pcDNA3 (Invitrogen) digested with EcoR I and Xba I. Clones containing rat U-II receptor were verified by complete sequencing of the U-II receptor insert to ensure a lack of PCR-introduced errors. The constructed vector was transfected into CHO cells by using lipofectamine (GIBCO BRL). […]
pIC50 is defined as minus the log10 of a concentration measured in mol/L.

In one line, give reported pIC50 of the entry `CC(C)(C)CC(=O)N1CCC(CNC(=O)c2cc(Cl)ccc2C2CCN(CCN3C(=O)COc4ccccc43)CC2)CC1` .
6.48

Report pIC50, nothing else, for this compound: `O=C(NCCc1ccc(Cl)c(Cl)c1)c1ccccc1C1CCN(CCN2C(=O)COc3ccccc32)CC1`
5.27

Fill in pIC50 for record `O=C(NCC1CC1)c1ccccc1C1CCN(CCN2C(=O)COc3ccccc32)CC1`
4.92

Name the recorded pIC50 of the item `CC(C)(C)OC(=O)NCCOCCNC(=O)c1cc(Cl)ccc1C1CCN(CCN2C(=O)COc3ccccc32)CC1` in your answer.
7.43

----------
Target Or System: Human UII receptors (Homo sapiens)
Construct: host or cells: Human Skeletal Muscle Myoblasts (HSMM), intact adherent cells
Sequence (Q9UKP6 1-389): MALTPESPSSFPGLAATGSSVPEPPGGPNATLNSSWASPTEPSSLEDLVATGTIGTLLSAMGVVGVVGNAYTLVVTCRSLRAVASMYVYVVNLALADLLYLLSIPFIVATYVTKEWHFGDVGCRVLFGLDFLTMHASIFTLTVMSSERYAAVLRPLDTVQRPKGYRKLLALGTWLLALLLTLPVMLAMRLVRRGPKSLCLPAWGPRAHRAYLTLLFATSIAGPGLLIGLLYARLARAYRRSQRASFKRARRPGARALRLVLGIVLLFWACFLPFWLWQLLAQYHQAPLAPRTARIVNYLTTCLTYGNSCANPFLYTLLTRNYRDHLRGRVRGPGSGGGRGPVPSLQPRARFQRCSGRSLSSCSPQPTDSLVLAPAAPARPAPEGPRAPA
Measurement Notes: Human radioligand binding assay, (125I)-U-II on HSMM
Experimental Conditions: 0.150 nM (125I)-U-II, intact Human Skeletal Muscle Myoblasts, 3 hrs, 25° C.; read-out: Ki
Note to self: class = bucket of Ki, per lo = under 100 nM, med = from 100 nM up to 700 nM, hi = 700 nM and over

Take a look at these entries with their results.
{"Compound": "O=C(NCC1CCN(S(=O)(=O)Cc2ccccc2)CC1)c1cc(Cl)ccc1C1CCN(CCN2C(=O)COc3ccccc32)CC1", "Class Assignment": "lo"}
{"Compound": "CC(C)(C)OC(=O)N1CCN(CCNC(=O)c2cc(Cl)ccc2C2=CC3CCC(C2)N3CCN2C(=O)COc3ccccc32)CC1 (stereo not drawn)", "Class Assignment": "hi"}
{"Compound": "O=C(NCCCCCNC(=O)c1cc(Cl)ccc1C1CCN(CCN2C(=O)COc3ccccc32)CC1)OCc1ccccc1", "Class Assignment": "lo"}
{"Compound": "CC(C)(C)OC(=O)N1CCC(CNC(=O)c2ccccc2C2CCN(CCN3C(=O)COc4ccccc43)CC2)CC1", "Class Assignment": "med"}
{"Compound": "O=C(NCCc1ccccc1)c1ccccc1C1CCN(CCN2C(=O)COc3ccccc32)CC1", "Class Assignment": "hi"}
{"Compound": "O=C(NCCCc1ccccc1)c1ccccc1C1CCN(CCN2C(=O)COc3ccccc32)CC1", "Class Assignment": "med"}
{"Compound": "CC(C)(C)OC(=O)NCCCCCNC(=O)c1cc(Cl)ccc1C1CCN(CCN2C(=O)CCc3ccccc32)CC1", "Class Assignment": "med"}
{"Compound": "CC(C)(C)OC(=O)NCCCCCNC(=O)c1ccccc1[C@@H]1C[C@H]2CC[C@@H](C1)N2CCN1C(=O)COc2ccccc21", "Class Assignment": "hi"}

Now consider a different compound.
Which Ki band matches `O=C(NCCc1c[nH]c2ccccc12)c1ccccc1C1CCN(CCN2C(=O)COc3ccccc32)CC1` ?
hi

----------
Target Or System: rat GPR14 (U-II receptor) (Rattus norvegicus, UniProt P49684)
Sequence (P49684 1-386): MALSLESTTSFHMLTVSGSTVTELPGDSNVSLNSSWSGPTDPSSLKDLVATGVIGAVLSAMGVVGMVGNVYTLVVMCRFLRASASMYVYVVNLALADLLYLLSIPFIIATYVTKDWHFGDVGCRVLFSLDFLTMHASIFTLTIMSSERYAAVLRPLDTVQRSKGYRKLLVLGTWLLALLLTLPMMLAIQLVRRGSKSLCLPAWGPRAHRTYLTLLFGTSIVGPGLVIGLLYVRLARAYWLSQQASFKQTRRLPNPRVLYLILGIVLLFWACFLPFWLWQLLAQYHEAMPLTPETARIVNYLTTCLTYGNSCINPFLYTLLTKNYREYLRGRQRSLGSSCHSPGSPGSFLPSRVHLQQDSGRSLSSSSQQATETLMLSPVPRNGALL
Measurement Notes: Calcium flux assay (FLIPR)
Experimental Conditions: Inhibition of acetyl-cyclic[Cys-Phe-Trp-Lys-(2-Nal)-Cys]-NH2 (1 nM) induced Ca2+ mobilization (FLIPR) in CHO cells transfected with rat UII receptor; 5 min incubation
The following compounds are listed with their measured IC50 values.
Could you give me the number in µM? Just the number is fine.

In the examples that follow, each entry is paired with its recorded IC50.
{"Compound": "O=C(NCc1ccccc1)c1ccccc1C1CCN(CCN2C(=O)COc3ccccc32)CC1 [Cpd 2]", "Target Or System": "rat GPR14 (U-II receptor) (Rattus norvegicus, UniProt P49684)", "Observation Type": "IC50", "Output Unit": "µM", "Reported Result": 7.9}
{"Compound": "O=C1COc2ccccc2N1CCN1CCC(c2ccc(Cl)cc2)CC1 [Cpd 85]", "Target Or System": "rat GPR14 (U-II receptor) (Rattus norvegicus, UniProt P49684)", "Observation Type": "IC50", "Output Unit": "µM", "Reported Result": 18}
{"Compound": "O=C(NCCc1ccc(F)cc1)c1ccccc1C1CCN(CCN2C(=O)COc3ccccc32)CC1 [Cpd 16]", "Target Or System": "rat GPR14 (U-II receptor) (Rattus norvegicus, UniProt P49684)", "Observation Type": "IC50", "Output Unit": "µM", "Reported Result": 8}

Give recorded IC50. CC(C)(C)OC(=O)N1CCC(CCNC(=O)c2cc(Cl)ccc2C2CCN(CCN3C(=O)COc4ccccc43)CC2)CC1 [Cpd 68]
0.1
